Reference source: ChEMBL document CHEMBL3580574

System: Escherichia coli
Assay: Antibacterial activity against Escherichia coli 107 ATCC 25922 assessed as bacterial growth inhibition by susceptibility testing assay
Type: functional
Settings: Escherichia coli, 107 ATCC 25922; read-out: MIC
Lab note: anything with MIC below 0.2 µg/mL is marked yes (1); values at 0.2 µg/mL or higher are marked no (0).

compound=CN(C)[C@@H]1C(O)=C(C(N)=O)C(=O)[C@@]2(O)C(O)=C3C(=O)c4c(O)c5c(c(F)c4C[C@H]3C[C@@H]12)[C@@H]1[C@@H](CCN1CCO)CN5 target_or_system="Escherichia coli" classification="no (0)"
compound="CN(C)[C@@H]1C(O)=C(C(N)=O)C(=O)[C@@]2(O)C(O)=C3C(=O)c4c(O)c5c(c(OC(F)(F)F)c4C[C@H]3C[C@@H]12)C1NCCC1CN5 (mixture of isomers)" target_or_system="Escherichia coli" classification="no (0)"
compound=CCCN1CC[C@@]2(C)CNc3c(O)c4c(c(F)c3[C@@H]12)C[C@H]1C[C@H]2[C@H](N(C)C)C(O)=C(C(N)=O)C(=O)[C@@]2(O)C(O)=C1C4=O target_or_system="Escherichia coli" classification="no (0)"
compound="CC(=O)N(C)CCN1CCC2CNc3c(O)c4c(c(F)c3C21)C[C@H]1C[C@H]2[C@H](N(C)C)C(O)=C(C(N)=O)C(=O)[C@@]2(O)C(O)=C1C4=O (mixture of isomers)" target_or_system="Escherichia coli" classification="no (0)"
compound=CN(C)[C@@H]1C(O)=C(C(N)=O)C(=O)[C@@]2(O)C(O)=C3C(=O)c4c(O)c5c(c(F)c4C[C@H]3C[C@@H]12)[C@H]1NCC[C@@]1(C)CN5 target_or_system="Escherichia coli" classification="no (0)"
compound=CCN1CC[C@H]2CNc3c(O)c4c(c(F)c3[C@H]21)C[C@H]1C[C@H]2[C@H](N(C)C)C(O)=C(C(N)=O)C(=O)[C@@]2(O)C(O)=C1C4=O target_or_system="Escherichia coli" classification="yes (1)"
compound=CN(C)c1cc(NC(=O)CNC(C)(C)C)c(O)c2c1C[C@H]1C[C@H]3[C@H](N(C)C)C(O)=C(C(N)=O)C(=O)[C@@]3(O)C(O)=C1C2=O target_or_system="Escherichia coli" classification="yes (1)"
compound=CN(C)[C@@H]1C(O)=C(C(N)=O)C(=O)[C@@]2(O)C(O)=C3C(=O)c4c(O)c5c(c(OC(F)(F)F)c4C[C@H]3C[C@@H]12)[C@@H]1[C@@H](CCN1C)CN5 target_or_system="Escherichia coli" classification="yes (1)"
compound="CN(C)[C@@H]1C(O)=C(C(N)=O)C(=O)[C@@]2(O)C(O)=C3C(=O)c4c(O)c5c(c(OC(F)(F)F)c4C[C@H]3C[C@@H]12)[C@@H]1[C@H](CN5)CC2CCCCN21 (stereo not given in full)" target_or_system="Escherichia coli" classification="yes (1)"
compound=CN(C)[C@@H]1C(O)=C(C(N)=O)C(=O)[C@@]2(O)C(O)=C3C(=O)c4c(O)c5c(c(F)c4C[C@H]3C[C@@H]12)[C@@H]1[C@@H](CCN1CCNCC(F)F)CN5 target_or_system="Escherichia coli" classification="no (0)"

* * *

This section presents molecules with their documented MIC values.
Tested on: Acinetobacter baumannii
Assay: Antibacterial activity against tet(B) tetracycline-resistant Acinetobacter baumannii 250 assessed as bacterial growth inhibition by susceptibility testing assay
Assay type: functional
Conditions: Acinetobacter baumannii, 250; read-out: MIC
outcome-measure: MIC (µg/mL)

molecule="CC(=O)N(C)CCN1CCC2CNc3c(O)c4c(c(F)c3C21)C[C@H]1C[C@H]2[C@H](N(C)C)C(O)=C(C(N)=O)C(=O)[C@@]2(O)C(O)=C1C4=O (mixture of isomers)" limit_sign=> observed_measurement=32
molecule=CN(C)[C@@H]1C(O)=C(C(N)=O)C(=O)[C@@]2(O)C(O)=C3C(=O)c4c(O)c5c(c(F)c4C[C@H]3C[C@@H]12)[C@H]1N(C)CC[C@@]1(C)CN5 limit_sign== observed_measurement=8
molecule="CN(C)[C@@H]1C(O)=C(C(N)=O)C(=O)[C@@]2(O)C(O)=C3C(=O)c4c(O)c5c(c(OC(F)(F)F)c4C[C@H]3C[C@@H]12)C1NCCC1CN5 (mixture of isomers)" limit_sign=> observed_measurement=32
molecule=CN(C)CCN1CC[C@H]2CNc3c(O)c4c(c(F)c3[C@H]21)C[C@H]1C[C@H]2[C@H](N(C)C)C(O)=C(C(N)=O)C(=O)[C@@]2(O)C(O)=C1C4=O limit_sign=> observed_measurement=32
molecule="CN(C)c1cc(NC(=O)CNC(C)(C)C)c(O)c2c1C[C@H]1C[C@H]3[C@H](N(C)C)C(O)=C(C(N)=O)C(=O)[C@@]3(O)C(O)=C1C2=O [TIGECYCLINE]" limit_sign== observed_measurement=8
molecule=CCCN1CC[C@@]2(C)CNc3c(O)c4c(c(F)c3[C@@H]12)C[C@H]1C[C@H]2[C@H](N(C)C)C(O)=C(C(N)=O)C(=O)[C@@]2(O)C(O)=C1C4=O limit_sign== observed_measurement=16
molecule="CN(C)[C@@H]1C(O)=C(C(N)=O)C(=O)[C@@]2(O)C(O)=C3C(=O)c4c(O)cccc4[C@@](C)(O)[C@H]3C[C@@H]12 [TETRACYCLINE]" limit_sign=> observed_measurement=32
molecule=CN(C)[C@@H]1C(O)=C(C(N)=O)C(=O)[C@@]2(O)C(O)=C3C(=O)c4c(O)c5c(c(OC(F)(F)F)c4C[C@H]3C[C@@H]12)[C@@H]1[C@@H](CCN1C)CN5 limit_sign== observed_measurement=1
molecule="CC1C[C@H]2CNc3c(O)c4c(c(OC(F)(F)F)c3[C@H]2N1C)C[C@H]1C[C@H]2[C@H](N(C)C)C(O)=C(C(N)=O)C(=O)[C@@]2(O)C(O)=C1C4=O (stereo partly specified)" limit_sign== observed_measurement=1
molecule=CN(C)[C@@H]1C(O)=C(C(N)=O)C(=O)[C@@]2(O)C(O)=C3C(=O)c4c(O)c5c(c(F)c4C[C@H]3C[C@@H]12)[C@@H]1[C@@H](CCN1CCO)CN5 limit_sign=> observed_measurement=32
molecule="CN(C)[C@@H]1C(O)=C(C(N)=O)C(=O)[C@@]2(O)C(O)=C3C(=O)c4c(O)c5c(c(F)c4C[C@H]3C[C@@H]12)C1NCCC1CN5 (mixture of isomers)" limit_sign=> observed_measurement=32

* * *

Tested on: Escherichia coli
Assay: Antibacterial activity against tet(A) tetracycline-resistant Escherichia coli 155 assessed as bacterial growth inhibition by susceptibility testing assay
Assay type: functional
Details: Escherichia coli, 155; read-out: MIC
outcome-measure: MIC (µg/mL)

molecule="CN(C)[C@@H]1C(O)=C(C(N)=O)C(=O)[C@@]2(O)C(O)=C3C(=O)c4c(O)c5c(c(OC(F)(F)F)c4C[C@H]3C[C@@H]12)C1NCCC1CN5 (mixture of isomers)" target_or_system="Escherichia coli" outcome_measure=MIC observed_measurement=2
molecule="CN(C)[C@@H]1C(O)=C(C(N)=O)C(=O)[C@@]2(O)C(O)=C3C(=O)c4c(O)c5c(c(OC(F)(F)F)c4C[C@H]3C[C@@H]12)[C@@H]1[C@H](CN5)CC2CCCN21 (stereo not given in full)" target_or_system="Escherichia coli" outcome_measure=MIC observed_measurement=0.25
molecule=CN(C)c1cc(NC(=O)CNC(C)(C)C)c(O)c2c1C[C@H]1C[C@H]3[C@H](N(C)C)C(O)=C(C(N)=O)C(=O)[C@@]3(O)C(O)=C1C2=O target_or_system="Escherichia coli" outcome_measure=MIC observed_measurement=1
molecule=CN(C)[C@@H]1C(O)=C(C(N)=O)C(=O)[C@@]2(O)C(O)=C3C(=O)c4c(O)c5c(c(F)c4C[C@H]3C[C@@H]12)[C@H]1N(C)CC[C@@]1(C)CN5 target_or_system="Escherichia coli" outcome_measure=MIC observed_measurement=2
molecule=CCCN1CC[C@@]2(C)CNc3c(O)c4c(c(F)c3[C@@H]12)C[C@H]1C[C@H]2[C@H](N(C)C)C(O)=C(C(N)=O)C(=O)[C@@]2(O)C(O)=C1C4=O target_or_system="Escherichia coli" outcome_measure=MIC observed_measurement=4

* * *

Tested on: Escherichia coli
Assay: Antibacterial activity against tet(A) tetracycline-resistant Escherichia coli 155 assessed as bacterial growth inhibition by susceptibility testing assay
Assay type: functional
Conditions: Escherichia coli, 155; read-out: MIC
outcome-measure: log10 of MIC (log10 of the value in µg/mL)

compound="CC(=O)N(C)CCN1CCC2CNc3c(O)c4c(c(F)c3C21)C[C@H]1C[C@H]2[C@H](N(C)C)C(O)=C(C(N)=O)C(=O)[C@@]2(O)C(O)=C1C4=O (mixture of isomers)" target_or_system="Escherichia coli" observed_measurement=1.51
compound=CN(C)[C@@H]1C(O)=C(C(N)=O)C(=O)[C@@]2(O)C(O)=C3C(=O)c4c(O)c5c(c(F)c4C[C@H]3C[C@@H]12)[C@@H]1[C@@H](CCN1CCO)CN5 target_or_system="Escherichia coli" observed_measurement=1.20
compound="CN(C)[C@@H]1C(O)=C(C(N)=O)C(=O)[C@@]2(O)C(O)=C3C(=O)c4c(O)c5c(c(F)c4C[C@H]3C[C@@H]12)[C@@H]1[C@@H](CCN1C)CN5 (stereo in doubt; 10b)" target_or_system="Escherichia coli" observed_measurement=0.00
compound=CCN1CC[C@H]2CNc3c(O)c4c(c(F)c3[C@H]21)C[C@H]1C[C@H]2[C@H](N(C)C)C(O)=C(C(N)=O)C(=O)[C@@]2(O)C(O)=C1C4=O target_or_system="Escherichia coli" observed_measurement=-0.60
compound="CN(C)[C@@H]1C(O)=C(C(N)=O)C(=O)[C@@]2(O)C(O)=C3C(=O)c4c(O)c5c(c(OC(F)(F)F)c4C[C@H]3C[C@@H]12)[C@@H]1[C@H](CN5)CC2CCCCN21 (stereo partly drawn)" target_or_system="Escherichia coli" observed_measurement=-0.90
compound=CN(C)[C@@H]1C(O)=C(C(N)=O)C(=O)[C@@]2(O)C(O)=C3C(=O)c4c(O)c5c(c(F)c4C[C@H]3C[C@@H]12)[C@H]1NCC[C@@]1(C)CN5 target_or_system="Escherichia coli" observed_measurement=1.20
compound="CN(C)[C@@H]1C(O)=C(C(N)=O)C(=O)[C@@]2(O)C(O)=C3C(=O)c4c(O)c5c(c(F)c4C[C@H]3C[C@@H]12)C1NCCC1CN5 (mixture of isomers)" target_or_system="Escherichia coli" observed_measurement=0.00
compound=CN(C)[C@@H]1C(O)=C(C(N)=O)C(=O)[C@@]2(O)C(O)=C3C(=O)c4c(O)c5c(c(F)c4C[C@H]3C[C@@H]12)[C@@H]1[C@@H](CCN1CCNCC(F)F)CN5 target_or_system="Escherichia coli" observed_measurement=0.60
compound="CN(C)[C@@H]1C(O)=C(C(N)=O)C(=O)[C@@]2(O)C(O)=C3C(=O)c4c(O)c5c(c(OC(F)(F)F)c4C[C@H]3C[C@@H]12)[C@@H]1[C@H](CN5)CC2COCCN21 (stereo partly drawn)" target_or_system="Escherichia coli" observed_measurement=1.20
compound=CN(C)[C@@H]1C(O)=C(C(N)=O)C(=O)[C@@]2(O)C(O)=C3C(=O)c4c(O)c5c(c(OC(F)(F)F)c4C[C@H]3C[C@@H]12)[C@@H]1[C@@H](CCN1C)CN5 target_or_system="Escherichia coli" observed_measurement=-1.51
compound="CC1C[C@H]2CNc3c(O)c4c(c(OC(F)(F)F)c3[C@H]2N1C)C[C@H]1C[C@H]2[C@H](N(C)C)C(O)=C(C(N)=O)C(=O)[C@@]2(O)C(O)=C1C4=O (stereo partly drawn)" target_or_system="Escherichia coli" observed_measurement=-1.20
